Tested on: 317291-083-R-J1-PDC complex spheroids, viability
Assay: Anticancer human tumor 317291-083-R-J1-PDC patient-derived soft tissue sarcoma cell line growth inhibition [GQUAD]
Conditions: second compound 0.0316 µM; first compound 10 µM; stronger effect = lower value
Parameter: viability, T/C. Scope: all listed entries.
Measured parameter: viability, T/C

Molecule	Assay target	Measured
O=C(c1cc(Cc2n[nH]c(=O)c3ccccc23)ccc1F)N1CCN(C(=O)C2CC2)CC1 + CN(C)c1ccc(Nc2c3ccc(NC(=O)CCN4CCCC4)cc3nc3cc(NC(=O)CCN4CCCC4)ccc23)cc1	317291-083-R-J1-PDC complex spheroids, viability	44.1%
CC1COCCN1c1cc(-c2ccnn2C)c2ccnc(-c3ccn[nH]3)c2n1 (stereo unspecified) + CN(C)c1ccc(Nc2c3ccc(NC(=O)CCN4CCCC4)cc3nc3cc(NC(=O)CCN4CCCC4)ccc23)cc1	317291-083-R-J1-PDC complex spheroids, viability	14.2%
COc1cc(C2c3cc4c(cc3C(OC3OC5COC(C)OC5C(O)C3O)C3COC(=O)C23)OCO4)cc(OC)c1O (stereo unspecified) + Cc1[nH]c2ccc(F)cc2c1-c1nc2c3cccnc3c3ncccc3c2[nH]1	317291-083-R-J1-PDC complex spheroids, viability	16.5%
CCCS(=O)(=O)Nc1ccc(F)c(C(=O)c2c[nH]c3ncc(-c4ccc(Cl)cc4)cc23)c1F + Cc1cnc(CNC(=O)c2c(=O)c3ccc(N4CCCN(C)CC4)nc3n3c2sc2ccccc23)cn1	317291-083-R-J1-PDC complex spheroids, viability	9.94%
O=c1[nH]cc(F)c(=O)[nH]1 + CN(C)c1ccc(Nc2c3ccc(NC(=O)CCN4CCCC4)cc3nc3cc(NC(=O)CCN4CCCC4)ccc23)cc1	317291-083-R-J1-PDC complex spheroids, viability	38.5%
CC(C)n1c(=O)n(C)c2cnc3cc(F)c(-c4ccc(OCCCN5CCCCC5)nc4)cc3c21 + Cc1cnc(CNC(=O)c2c(=O)c3ccc(N4CCCN(C)CC4)nc3n3c2sc2ccccc23)cn1	317291-083-R-J1-PDC complex spheroids, viability	44.5%
COc1ncnc(C2CC2)c1-c1ncc2cnn(Cc3ccc(-c4nc(C(F)(F)F)cn4C(C)C)cc3)c2n1 + Cc1cnc(CNC(=O)c2c(=O)c3ccc(N4CCCN(C)CC4)nc3n3c2sc2ccccc23)cn1	317291-083-R-J1-PDC complex spheroids, viability	54.1%
C=CCn1c(=O)c2cnc(Nc3ccc(N4CCN(C)CC4)cc3)nc2n1-c1cccc(C(C)(C)O)n1 + Cc1cnc(CNC(=O)c2c(=O)c3ccc(N4CCCN(C)CC4)nc3n3c2sc2ccccc23)cn1	317291-083-R-J1-PDC complex spheroids, viability	17.2%
O=C(NO)c1cnc(N2CCN(S(=O)(=O)c3ccc4ccccc4c3)CC2)nc1 + Cc1[nH]c2ccc(F)cc2c1-c1nc2c3cccnc3c3ncccc3c2[nH]1	317291-083-R-J1-PDC complex spheroids, viability	0.9%
CC(C)n1c(=O)n(C)c2cnc3cc(F)c(-c4ccc(OCCCN5CCCCC5)nc4)cc3c21 + Cc1[nH]c2ccc(F)cc2c1-c1nc2c3cccnc3c3ncccc3c2[nH]1	317291-083-R-J1-PDC complex spheroids, viability	50.5%
O=c1[nH]cc(F)c(=O)[nH]1 + Cc1cnc(CNC(=O)c2c(=O)c3ccc(N4CCCN(C)CC4)nc3n3c2sc2ccccc23)cn1	317291-083-R-J1-PDC complex spheroids, viability	24.6%

====

Tested on: 317291-083-R-J1-PDC complex spheroids, viability
Experiment: Anticancer human tumor 317291-083-R-J1-PDC cell line growth inhibition [GQUAD];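 further: spheroids exposed to compounds for one week before readout; percent viability relative to DMSO vehicle wells taken as 100%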
Conditions: second compound 0.1 µM; first compound 0.0316 µM; stronger effect = lower value

Compound	Assay target	viability, T/C / %
COc1cccc2c1C(=O)c1c(O)c3c(c(O)c1C2=O)CC(O)(C(=O)CO)CC3OC1CC(N)C(O)C(C)O1 (stereo not given) + Cc1[nH]c2ccc(F)cc2c1-c1nc2c3cccnc3c3ncccc3c2[nH]1	317291-083-R-J1-PDC complex spheroids, viability	80.3
C=CC(=O)N1CCN(c2nc(=O)n(-c3c(C)ccnc3C(C)C)c3nc(-c4c(O)cccc4F)c(F)cc23)C(C)C1 (stereo not given) + Cc1cnc(CNC(=O)c2c(=O)c3ccc(N4CCCN(C)CC4)nc3n3c2sc2ccccc23)cn1	317291-083-R-J1-PDC complex spheroids, viability	79.1
Nc1ccn(C2OC(CO)C(O)C2(F)F)c(=O)n1 (stereo not given) + Cc1cnc(CNC(=O)c2c(=O)c3ccc(N4CCCN(C)CC4)nc3n3c2sc2ccccc23)cn1	317291-083-R-J1-PDC complex spheroids, viability	43.9
COc1cc(C2c3cc4c(cc3C(OC3OC5COC(C)OC5C(O)C3O)C3COC(=O)C23)OCO4)cc(OC)c1O (stereo not given) + CN(C)c1ccc(Nc2c3ccc(NC(=O)CCN4CCCC4)cc3nc3cc(NC(=O)CCN4CCCC4)ccc23)cc1	317291-083-R-J1-PDC complex spheroids, viability	92.1
CC1COCCN1c1cc(-c2ccnn2C)c2ccnc(-c3ccn[nH]3)c2n1 (stereo not given) + Cc1cnc(CNC(=O)c2c(=O)c3ccc(N4CCCN(C)CC4)nc3n3c2sc2ccccc23)cn1	317291-083-R-J1-PDC complex spheroids, viability	59

====

System: 317291-083-R-J1-PDC complex spheroids, viability
Assay: Anticancer human tumor 317291-083-R-J1-PDC cell line growth inhibition [GQUAD];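 further: spheroids exposed to compounds for one week before readout; percent viability relative to DMSO vehicle wells taken as 100%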
Conditions: second compound 0.1 µM; first compound 3.16 µM; stronger effect = lower value

Compound	viability, T/C, %
COc1ncnc(C2CC2)c1-c1ncc2cnn(Cc3ccc(-c4nc(C(F)(F)F)cn4C(C)C)cc3)c2n1 + Cc1cnc(CNC(=O)c2c(=O)c3ccc(N4CCCN(C)CC4)nc3n3c2sc2ccccc23)cn1	56.1
CCCS(=O)(=O)Nc1ccc(F)c(C(=O)c2c[nH]c3ncc(-c4ccc(Cl)cc4)cc23)c1F + Cc1[nH]c2ccc(F)cc2c1-c1nc2c3cccnc3c3ncccc3c2[nH]1	41.9
Cc1cccc(N(C)C(=O)C2C(O)CCN2c2nc(C)cc(C(F)(F)F)c2C#N)c1 (stereo not given) + Cc1[nH]c2ccc(F)cc2c1-c1nc2c3cccnc3c3ncccc3c2[nH]1	121
C=CCn1c(=O)c2cnc(Nc3ccc(N4CCN(C)CC4)cc3)nc2n1-c1cccc(C(C)(C)O)n1 + Cc1cnc(CNC(=O)c2c(=O)c3ccc(N4CCCN(C)CC4)nc3n3c2sc2ccccc23)cn1	14.6
CC1COCCN1c1cc(-c2ccnn2C)c2ccnc(-c3ccn[nH]3)c2n1 (stereo not given) + CN(C)c1ccc(Nc2c3ccc(NC(=O)CCN4CCCC4)cc3nc3cc(NC(=O)CCN4CCCC4)ccc23)cc1	12.1

====

System: 317291-083-R-J1-PDC complex spheroids, viability
Assay: Anticancer human tumor 317291-083-R-J1-PDC cell line growth inhibition [GQUAD];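 further: spheroids exposed to compounds for one week before readout; percent viability relative to DMSO vehicle wells taken as 100%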
Settings: second compound 0.1 µM; first compound 0.0999 µM; stronger effect = lower value
viability, T/C values, listed per item

Compound	Assay target	viability, T/C, %
CC[C@@]1(O)C(=O)OCc2c1cc1n(c2=O)Cc2cc3c(CN(C)C)c(O)ccc3nc2-1 + Cc1cnc(CNC(=O)c2c(=O)c3ccc(N4CCCN(C)CC4)nc3n3c2sc2ccccc23)cn1	317291-083-R-J1-PDC complex spheroids, viability	21.9
CCc1c2c(nc3ccc(O)cc13)-c1cc3c(c(=O)n1C2)COC(=O)[C@]3(O)CC + Cc1cnc(CNC(=O)c2c(=O)c3ccc(N4CCCN(C)CC4)nc3n3c2sc2ccccc23)cn1	317291-083-R-J1-PDC complex spheroids, viability	5.29
CCc1c2c(nc3ccc(O)cc13)-c1cc3c(c(=O)n1C2)COC(=O)[C@]3(O)CC + CN(C)c1ccc(Nc2c3ccc(NC(=O)CCN4CCCC4)cc3nc3cc(NC(=O)CCN4CCCC4)ccc23)cc1	317291-083-R-J1-PDC complex spheroids, viability	9.19
Cn1ncnc1[C@H]1c2n[nH]c(=O)c3cc(F)cc(c23)N[C@@H]1c1ccc(F)cc1 + Cc1[nH]c2ccc(F)cc2c1-c1nc2c3cccnc3c3ncccc3c2[nH]1	317291-083-R-J1-PDC complex spheroids, viability	91.6
Cn1ncnc1[C@H]1c2n[nH]c(=O)c3cc(F)cc(c23)N[C@@H]1c1ccc(F)cc1 + CN(C)c1ccc(Nc2c3ccc(NC(=O)CCN4CCCC4)cc3nc3cc(NC(=O)CCN4CCCC4)ccc23)cc1	317291-083-R-J1-PDC complex spheroids, viability	81.9

====

System: 317291-083-R-J1-PDC complex spheroids, viability
Assay: Anticancer human tumor 317291-083-R-J1-PDC cell line growth inhibition [GQUAD];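 further: spheroids exposed to compounds for one week before readout; percent viability relative to DMSO vehicle wells taken as 100%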
Conditions: second compound 0.1 µM; first compound 0.316 µM; stronger effect = lower value
# Lookup of reported viability, T/C keyed by entry
Measured parameter: viability, T/C (%)

Compound	Measured
COc1ccc([C@@H](O)c2cc(-c3ncnc4cc(N5CCOCC5)ccc34)c(F)cc2Cl)nn1 + Cc1[nH]c2ccc(F)cc2c1-c1nc2c3cccnc3c3ncccc3c2[nH]1	86.8
O=C(c1cc(Cc2n[nH]c(=O)c3ccccc23)ccc1F)N1CCN(C(=O)C2CC2)CC1 + CN(C)c1ccc(Nc2c3ccc(NC(=O)CCN4CCCC4)cc3nc3cc(NC(=O)CCN4CCCC4)ccc23)cc1	101
CC(C)n1c(=O)n(C)c2cnc3cc(F)c(-c4ccc(OCCCN5CCCCC5)nc4)cc3c21 + Cc1cnc(CNC(=O)c2c(=O)c3ccc(N4CCCN(C)CC4)nc3n3c2sc2ccccc23)cn1	24.6
CC1COCCN1c1cc(-c2ccnn2C)c2ccnc(-c3ccn[nH]3)c2n1 (stereo not given) + Cc1[nH]c2ccc(F)cc2c1-c1nc2c3cccnc3c3ncccc3c2[nH]1	14.7
CC(C)n1c(=O)n(C)c2cnc3cc(F)c(-c4ccc(OCCCN5CCCCC5)nc4)cc3c21 + CN(C)c1ccc(Nc2c3ccc(NC(=O)CCN4CCCC4)cc3nc3cc(NC(=O)CCN4CCCC4)ccc23)cc1	96.3

The origin of these recorded values is PubChem BioAssay AID2060497.
